For each record, write down the corresponding MIC.
- System: Aspergillus fumigatus
- PROTOCOL_DESCRIPTION: Antifungal activity against Aspergillus fumigatus GIMCC 3.19 after 24 hrs by two-fold serial dilution method
- Format: functional
- ASSAY_SETUP: GIMCC 3.19, 24 h
// note: answer is a bare numeric in µg/mL

stdin: Provide one value: measured MIC of COC(=O)C(Cc1ccccc1)NP(=O)(OCCN(C)c1cc(=O)oc2ccc(C(C)(C)C)cc12)Oc1ccccc1 (centres undefined)
stdout: 32

stdin: Recall and state the measured MIC for COC(=O)C(NP(=O)(OCCN(C)c1cc(=O)oc2ccc(C(C)(C)C)cc12)Oc1ccccc1)C(C)C (centres undefined) .
stdout: 64

stdin: Return the recorded MIC value; entry: COC(=O)C(NP(=O)(OCCN(C)c1cc(=O)oc2cc(C)ccc12)Oc1ccccc1)C(C)C (centres undefined)
stdout: 128

stdin: Provide only the value of recorded MIC for `OC(Cn1cncn1)(Cn1cncn1)c1ccc(F)cc1F`
stdout: 32

stdin: Indicate the recorded MIC value for this molecule: COC(=O)C(NP(=O)(OCCN(C)c1cc(=O)oc2c(C)cccc12)Oc1ccccc1)C(C)C (centres undefined)
stdout: 128

stdin: Give the reported value of MIC for this record: COC(=O)CNP(=O)(OCCN(C)c1cc(=O)oc2cc(C)ccc12)Oc1ccccc1 (centres undefined)
stdout: 32

stdin: Find the measured MIC of COC(=O)C(C)NP(=O)(OCCN(C)c1cc(=O)oc2cc(C)ccc12)Oc1ccccc1 (centres undefined) and report it.
stdout: 128

stdin: Item COC(=O)C(Cc1ccccc1)NP(=O)(OCCN(C)c1cc(=O)oc2c(C)cccc12)Oc1ccccc1 (centres undefined) : provide MIC
stdout: 128

stdin: Determine its reported MIC: COC(=O)CNP(=O)(OCCN(C)c1cc(=O)oc2ccccc12)Oc1ccccc1 (centres undefined)
stdout: 128
